testedOn: Neuronal acetylcholine receptor subunit alpha-7 (Homo sapiens)
Sequence (P36544 whole entry): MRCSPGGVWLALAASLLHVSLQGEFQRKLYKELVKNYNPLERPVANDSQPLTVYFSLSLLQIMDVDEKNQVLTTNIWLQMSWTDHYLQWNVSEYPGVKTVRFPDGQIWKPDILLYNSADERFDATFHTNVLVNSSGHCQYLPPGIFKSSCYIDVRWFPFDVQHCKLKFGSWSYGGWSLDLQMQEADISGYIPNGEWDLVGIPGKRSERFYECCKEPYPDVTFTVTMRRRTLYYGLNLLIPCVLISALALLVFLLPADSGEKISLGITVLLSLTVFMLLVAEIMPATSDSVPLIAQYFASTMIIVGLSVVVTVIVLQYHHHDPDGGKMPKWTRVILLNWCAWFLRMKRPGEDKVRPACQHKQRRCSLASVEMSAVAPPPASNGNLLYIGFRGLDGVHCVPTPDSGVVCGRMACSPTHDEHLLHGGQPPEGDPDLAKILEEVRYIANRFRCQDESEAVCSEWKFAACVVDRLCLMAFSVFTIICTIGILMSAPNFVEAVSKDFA
assaySummary: Antagonist activity at human alpha7 nAChR expressed in GH3 cells by Ca2+/Fluo-4 assay
Assay type: cell-based
statedConditions: read-out: pIC50 (converted)
recordedMetric: IC50 (µM)
I only need the number, in µM, no unit after it.

Worked cases, IC50 given:
# compound, resultUnit, IC50
rows = [
    ("CC[C@@H]1CN2CC[C@@]34c5ccccc5N5/C=C6/[C@H]7C[C@@H]8N(CC[C@@]89c8ccccc8N(/C=C(/[C@H]1C[C@H]23)[C@H]54)[C@@H]69)C[C@H]7CC", "µM", 3.31),
    ("CC[C@@H]1C[N+]2(Cc3ccc([N+](=O)[O-])cc3)CC[C@@]34c5ccccc5N5/C=C6/[C@H]7C[C@H]8[C@@]9(CC[N+]8(Cc8ccc([N+](=O)[O-])cc8)C[C@H]7CC)c7ccccc7N(/C=C(/[C@H]1C[C@@H]32)[C@H]54)[C@@H]69 (some centres undefined)", "µM", 21.4),
    ("C=CC[N+]12CC[C@@]34c5ccccc5N5/C=C6/[C@H]7C[C@H]8[C@@]9(CC[N+]8(CC=C)C[C@H]7CCO)c7ccccc7N(/C=C(/[C@@H](C[C@@H]31)[C@H](CC)C2)[C@H]54)[C@@H]69 (some centres undefined)", "µM", 3.16),
]

Shifting focus to the compound that follows.
### Prompt Please provide the recorded IC50 for CC[C@@H]1C[N+]2(Cc3ccc([N+](=O)[O-])cc3)CC[C@@]34c5ccccc5N5/C=C6/[C@H]7C[C@H]8[C@@]9(CC[N+]8(Cc8ccc([N+](=O)[O-])cc8)C[C@H]7CCO)c7ccccc7N(/C=C(/[C@H]1C[C@@H]32)[C@H]54)[C@@H]69 (some centres undefined) , tested on Neuronal acetylcholine receptor subunit alpha-7 (Homo sapiens).
### Response 4.17
